Give measured inhibition of SARS-CoV-2 cytopathic effect for each item. Keep answers brief.
System: Vero E6 infected with SARS-CoV-2
Assay: inhibition of SARS-CoV-2 cytopathic effect; higher = more antiviral protection, active = above 15
Conditions: 833.33 nM; 48 h
Numbers only, in %.

O=C(O)C(Cc1ccccc1[N+](=O)[O-])=NNc1nc(-c2ccc(Cl)c(Cl)c2)cs1	3.78
CC/C(=C(/CC)c1ccc(OP(=O)(O)O)cc1)c1ccc(OP(=O)(O)O)cc1 [fosfestrol]	0.3
C1CCN2C[C@@H]3C[C@@H](CN4CCCC[C@@H]34)[C@H]2C1 [sparteine-sulfate]	1.05

Hey, quick one: what's inhibition of SARS-CoV-2 cytopathic effect for each of these?
1. N#CC(c1ccnc(OCc2ccc(CN3CCOCC3)cc2)n1)c1nc2ccccc2s1 (centres undefined)
2. O=C(O[C@@H]1Cc2c(O)cc(O)cc2O[C@@H]1c1ccc(O)c(O)c1)c1cc(O)c(O)c(O)c1 [epicatechin-gallate-(-)]
3. O=C(O)CSc1nnc(Br)n1-c1ccc(C2CC2)c2ccccc12 [lesinurad]
4. Oc1cccc(-c2nc(N3CCOCC3)c3oc4ncccc4c3n2)c1

RESULT:
1. 2.82
2. 3.37
3. 0.63
4. -6.22

Hey, quick one: what's inhibition of SARS-CoV-2 cytopathic effect for each of these?
1. O=c1c2ccccc2oc2ccccc12 [xanthone]
2. N#Cc1ccc(N(Cc2ccc(Br)cc2)n2cnnc2)cc1

RESULT:
-0.86
2.99

* * *

Tested on: Vero E6 infected with SARS-CoV-2
Test: SARS-CoV-2 infection rate relative to infected DMSO; higher = more infection, active = 60 or less
Details: 24 h
quantity kind: SARS-CoV-2 infection rate (%)
Numbers only, in %.

O=C(O)CNC(=O)c1c(O)c2ccccc2n(Cc2ccccc2)c1=O (10 µM)	102
N#Cc1cc(NC(=O)C(=O)O)c(Cl)c(NC(=O)C(=O)O)c1 [lodoxamide] (10 µM)	110
CCCCCOc1ccc(-c2cc(-c3ccc(C(=O)N[C@H]4C[C@@H](O)[C@@H](O)NC(=O)[C@@H]5[C@@H](O)[C@@H](C)CN5C(=O)[C@H]([C@H](O)CC(N)=O)NC(=O)[C@H]([C@H](O)[C@@H](O)c5ccc(O)c(OS(=O)(=O)O)c5)NC(=O)[C@@H]5C[C@@H](O)CN5C(=O)[C@H]([C@@H](C)O)NC4=O)cc3)no2)cc1 [micafungin] (10 µM)	94.5
c1ccc(CN(CC2=NCCN2)c2ccccc2)cc1 [antazoline] (10 µM)	112
CC(C)CN(C[C@@H](OP(=O)(O)O)[C@H](Cc1ccccc1)NC(=O)O[C@H]1CCOC1)S(=O)(=O)c1ccc(N)cc1 [fosamprenavir] (10 µM)	109
Cc1cc(OCCCS(C)(=O)=O)cc(C)c1-c1cccc(COc2ccc3c(c2)OC[C@H]3CC(=O)O)c1 (10 µM)	108
N[C@@H](CCC(=O)N[C@@H](CS)C(=O)NCC(=O)O)C(=O)O [glutathione] (10 µM)	108
Cc1ccnc2c1CCCC2C(N)=S (configuration not stated) [isotiquimide] (10 µM)	113
CN(c1ccccc1CNc1nc(Nc2ccc3c(c2)CC(=O)N3)ncc1C(F)(F)F)S(C)(=O)=O (10 µM)	114
C#C[C@]1(O)CC[C@H]2[C@@H]3CCC4=C(CCC(=O)C4)[C@H]3CC[C@@]21C [noretynodrel] (10 µM)	108

Hey, quick one: what's SARS-CoV-2 infection rate for each of these?
1. C[N+]1([O-])[C@@H]2C[C@@H](OC(=O)[C@H](CO)c3ccccc3)C[C@H]1[C@@H]1O[C@@H]12 (some centres not stated) [scopolamine-N-oxide] (10 µM)
2. C[C@H](N)C(=O)N[C@@]1(C(=O)O)C[C@@H](Sc2nnc[nH]2)[C@H]2[C@H](C(=O)O)[C@H]21 (10 µM)
3. CC(=O)[C@@]1(O)CC[C@H]2[C@@H]3C=C(Cl)C4=CC(=O)[C@@H]5C[C@@H]5[C@]4(C)[C@H]3CC[C@@]21C (10 µM)
4. O=c1c2ccccc2[se]n1-c1ccccc1 [ebselen] (10 µM)

RESULT:
1. 107
2. 114
3. 109
4. 84

Hey, quick one: what's SARS-CoV-2 infection rate for each of these?
1. Nc1ccn([C@@H]2CS[C@H](CO)O2)c(=O)n1 [lamivudine] (10 µM)
2. CN[C@@H](C)CC1CCCCC1 [propylhexedrine] (10 µM)
3. Cc1cc(CC(C)CC(C)(C)C)n(O)c(=O)c1 (configuration not stated) [piroctone-olamine] (10 µM)

RESULT:
1. 102
2. 110
3. 88

Hey, quick one: what's SARS-CoV-2 infection rate for each of these?
1. CCCCCCCCc1ccc(-c2ccc(C(=O)O)cc2)cc1 (10 µM)
2. N=C(N)c1ccc(-c2ccc(-c3ccc(C(=N)N)cc3)o2)cc1 [furamidine] (10 µM)
3. CC(C)(C)C(=O)NCCCC(=O)O [pivagabine] (10 µM)
4. CCc1c(-c2ccccc2)c(-c2ccccc2)nn1-c1ccccc1-c1cccc(OCC(=O)O)c1 (10 µM)

RESULT:
[96, 98, 105, 96.5]

Hey, quick one: what's SARS-CoV-2 infection rate for each of these?
1. CCC[C@@H](NC(=O)N1C(=O)C(CC)(CC)[C@@H]1Oc1ccc(C(=O)N2CCN(C)CC2)cc1)c1ccc2c(c1)OCO2 (10 µM)
2. Cc1cnc(C(=O)NCCc2ccc(S(=O)(=O)NC(=O)NC3CCCCC3)cc2)cn1 [glipizide] (10 µM)
3. C[C@@H](Oc1ccc2[nH]nc(/C=C/c3cnn(CCO)c3)c2c1)c1c(Cl)cncc1Cl (10 µM)
4. c1nc(CC2CCNCC2)c[nH]1 [immepip] (10 µM)

RESULT:
1. 109
2. 96
3. 120
4. 101

Hey, quick one: what's SARS-CoV-2 infection rate for each of these?
1. CN(C)CCCNC(=O)c1ccc(-c2cc(O)c3ncccc3c2)cc1 (0.833333 µM)
2. C=CCN1CC[C@]23c4c5ccc(O)c4O[C@H]2C(=O)CC[C@@]3(O)[C@H]1C5 (10 µM)
3. COc1cccc(OC)c1OCCNC[C@H]1COc2ccccc2O1 (10 µM)
4. N=C(N)Nc1ccc(Cl)cc1 [4-chlorophenylguanidine] (10 µM)
5. CC(C)(Oc1ccc(C(=O)c2ccc(Cl)cc2)cc1)C(=O)O [fenofibric-acid] (10 µM)

RESULT:
1. 108
2. 114
3. 108
4. 114
5. 97

Hey, quick one: what's SARS-CoV-2 infection rate for each of these?
1. c1ccc(-c2n[nH]c3c2oc2ccccc23)cc1 (10 µM)
2. CC(OC(=O)NCC1(CC(=O)O)CCCCC1)OC(=O)C(C)C (configuration not stated) [gabapentin-enacarbil] (10 µM)

RESULT:
98.5
112
